- System: ULK1
- CONDITION INFO: concentration: 1 μM, replicates: in singlicate; n = 1;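 further: KINOMEscan kinase panel screen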
REPORTED PROPERTY: %Inh (%)
Reply numerically in %, unit not repeated.

Here's what some known entries look like.
> print(dat)
                                   molecule  target.or.system  reported.property  reported
1  COc1cc(Nc2nccc(N3CCC(NS(=O)(=O)c4ccc(NC(C)=O)cc4)CC3)n2)cc(OC)c1OC [GSK1379825]              ULK1               %Inh        21
2  COc1ccc(C2=C(Nc3cccc(O)c3)C(=O)NC2=O)cc1 [SB-390766]              ULK1               %Inh        26
3  COC(=O)Nc1nc2ccc(Oc3ccc(NC(=O)Nc4cc(C(F)(F)F)ccc4F)cc3)cc2[nH]1.Cl [GW654607]              ULK1               %Inh        15

# ---- query molecule ----
**Q:** Reported %Inh for Fc1cc(Cl)ccc1Nc1ccnc2cc(-c3ccc(CN4CCSCC4)o3)ccc12 [GW560106] : what is it?
**A:** 0

###

%Inh by entry:
- System: ERBB2
- CONDITION INFO: concentration: 1 μM, replicates: in singlicate; n = 1

Here's what some known entries look like.
> print(dat)
                            chemical.smiles  reported
1          CNc1nccc(-c2ccc3c(N)n[nH]c3c2)n1       50%
2  O=C(Nc1n[nH]c2nc(-c3cccc(O)c3)ccc12)C1CC1        0%

**Q:** Reported %Inh for `COC(=O)Nc1nc2ccc(Oc3ccc(NC(=O)Nc4cc(C(F)(F)F)ccc4F)cc3)cc2[nH]1.Cl` : what is it?
**A:** 6%

**Q:** Reported %Inh for `O=C(Nc1c(F)cccc1F)c1cc(C(=O)c2ccccc2F)c[nH]1` : what is it?
**A:** 35%

**Q:** Reported %Inh for `Cl.O=C(Nc1ccc(Oc2ccc3[nH]c(NC(=O)c4ccco4)nc3c2)cc1)Nc1cc(C(F)(F)F)ccc1F` : what is it?
**A:** 9%

###

%Inh by entry:
- Test system: ASK2
- Construct: gene MAP3K6
- CONDITION INFO: concentration: 1 μM, replicates: in singlicate; n = 1
Reply numerically in %, unit not repeated.

Here's what some known entries look like.
> print(dat)
                                   compound  target.or.system  reported.property  reported
1  N#Cc1cnc2cc(-c3cnc(CNCCN4CCOCC4)s3)ccc2c1Nc1ccc(Oc2ccccc2)cc1              ASK2               %Inh         9
2     Cc1ccc(O)cc1Nc1ccnc2ccc(C(C)(C)C)cc12              ASK2               %Inh        32
3  COc1cc(Nc2nccc(N3CCC(NC(=O)Nc4ccc5c(c4)OCO5)C3)n2)cc(OC)c1OC (centres unmarked)              ASK2               %Inh        12
4  Cc1cc(-c2c(-c3ccc(F)cc3)ncn2CCCN2CCOCC2)nc(N)n1              ASK2               %Inh        14
5                     CN(C)c1ncnc2nc[nH]c12              ASK2               %Inh         0
6  Cc1ccc(-c2ccc3occ(-c4ccc(S(C)=O)cc4)c3c2)nn1 (centres unmarked)              ASK2               %Inh         0
7  Cc1ccc(C)c(NC(=O)Nc2ccc(C)c(-c3ccc(C(=O)Nc4ccncc4)cc3)c2)c1              ASK2               %Inh         0
8  Cl.N#CCc1ccc(Nc2nccc(Nc3ccc(Oc4ccccc4)cc3)n2)cc1              ASK2               %Inh         7

**Q:** GET /values?readout=%Inh&system=ASK2&item= `Cc1cc(-c2ccnc(Nc3cccc(C#N)c3)n2)cc(C)c1O`
**A:** 11

**Q:** GET /values?readout=%Inh&system=ASK2&item= `O=C(O)C(F)(F)F.O=c1[nH]ccc2nc(N[C@@H]3CCNC3)nc(Nc3ccc4c(c3)S(=O)(=O)CC4)c12`
**A:** 38

###

%Inh by entry:
- System: WEE1
- CONDITION INFO: concentration: 1 μM, replicates: in singlicate; n = 1
Answer with the value and then the unit.

> print(dat)
                                   compound  reported
1  CN(C)CCOc1ccc(-c2cc(-c3ccc(Cl)c(O)c3)c(-c3ccncc3)[nH]2)cc1.Cl.Cl [SB-684387]        7%
2  NCCC(NC(=O)c1cc(Br)c(-c2ccnc3[nH]ccc23)s1)c1ccccc1.O=C(O)C(F)(F)F.O=C(O)C(F)(F)F (stereo not drawn) [GSK1307810]        4%

# ---- query compound ----
**Q:** GET /values?readout=%Inh&system=WEE1&item= Cc1ccccc1CC(=O)N1CCc2cc(-c3cn(C)c4ncnc(N)c34)ccc21 [GSK2603346]
**A:** 0%

###

%Inh by entry:
- Test system: NEK10
- CONDITION INFO: concentration: 1 μM, replicates: in singlicate; n = 1
Reply numerically in %, unit not repeated.

> print(dat)
                                   compound  reported.property  reported
1  O=C(Nc1n[nH]c2nc(-c3ccccc3O)ccc12)C1CC1 [SB-711880]               %Inh         0
2  CCNC(=O)/C=C/c1n[nH]c2cc(Sc3ccccc3C(=O)NC)ccc12               %Inh        24
3  Cc1nn2c(=O)cc(N3CCO[C@H](C)C3)nc2n1Cc1cccc(Cl)c1Cl [GSK2373693]               %Inh         0

**Q:** Reported %Inh for `CN(c1ccc(F)c(NC(=O)c2cccc(OC(C)(C)C#N)c2Cl)c1)c1ccc2nc(NC(=O)C3CC3)sc2n1` : what is it?
**A:** 0

###

- Test system: LIMK1
- CONDITION INFO: concentration: 1 μM, replicates: in singlicate; n = 1
REPORTED PROPERTY: %Inh (%)
Reply numerically in %, unit not repeated.

Here's what some known entries look like.
> print(dat)
                                    compound  units.text  reported
 1  Cc1ccc(NC(=O)c2ccc(Cl)c(Cl)c2)cc1-c1ccc(C(=O)Nc2ccncc2)cc1 [GSK1398460]           %        19
 2  O=C(Nc1n[nH]c2nc(-c3ccccc3O)ccc12)C1CC1 [SB-711880]           %         0
 3  Cc1ccc(-c2ccc3occ(-c4ccc(S(C)=O)cc4)c3c2)nn1 (stereo not drawn)           %         0
 4  O=C(O)C(F)(F)F.O=c1[nH]ccc2nc(N[C@@H]3CCNC3)nc(Nc3ccc4c(c3)S(=O)(=O)CC4)c12 [GSK2181306]           %         0
 5  COc1ccc(C2=C(Nc3cccc(O)c3)C(=O)NC2=O)cc1 [SB-390766]           %         0
 6  Cc1ccc(Nc2ccnc(Nc3ccc(C)c(F)c3)n2)cc1O.Cl [GW582868]           %         0
 7  Cc1cc(-c2c(-c3ccc(F)cc3)ncn2CCCN2CCOCC2)nc(N)n1 [SB-222517]           %         0
 8  Nc1cccc(-c2ccc3c(N)n[nH]c3c2)c1 [GSK2193613]           %         0
 9  COc1cc(Nc2nccc(N3CCC(NC(=O)Nc4ccc5c(c4)OCO5)C3)n2)cc(OC)c1OC (stereo not drawn) [GSK1379766]           %        40
10  Cl.N#CCc1ccc(Nc2nccc(Nc3ccc(Oc4ccccc4)cc3)n2)cc1 [GW639905]           %        25

**Q:** Reported %Inh for CN1CCN(Cc2ccc(NC(=O)Nc3ccc(N(C)c4ccnc(Nc5ccc(CS(C)(=O)=O)cc5)n4)cc3)cc2)CC1.Cl [GW827654] : what is it?
**A:** 27

**Q:** Reported %Inh for CNc1nccc(-c2ccc3c(N)n[nH]c3c2)n1 [GSK2206003] : what is it?
**A:** 0

**Q:** Reported %Inh for Cc1ccc(O)cc1Nc1ccnc2cc(-c3ccc(CN4CCCCC4)o3)ccc12 [GW557777] : what is it?
**A:** 6

**Q:** Reported %Inh for O=C1NC(=O)C(c2ccccc2Cl)=C1Nc1cccc(Cl)c1 [SB-342409] : what is it?
**A:** 20

**Q:** Reported %Inh for Nc1ncc(-c2ccc3nccc(-c4ccncc4)c3c2)cc1S(=O)(=O)N1CCCCC1 [GSK1693850] : what is it?
**A:** 0

**Q:** Reported %Inh for Cc1cc(-c2ccnc(Nc3cccc(C#N)c3)n2)cc(C)c1O [GSK1440913] : what is it?
**A:** 14

**Q:** Reported %Inh for Nc1ncc(-c2cn[nH]c2)c2scc(-c3ccc4c(c3)CCN4C(=O)Cc3ccccc3)c12 [GSK2593067] : what is it?
**A:** 17

**Q:** Reported %Inh for CN(c1ccc(NC(=O)Nc2cccc(Cl)c2)cc1)c1ccnc(N)n1.Cl [GW830707] : what is it?
**A:** 0

The measurements presented in this section are drawn from paper PMC5540273.
